System Under Test: Adenosine receptor A2a (Homo sapiens, UniProt P29274)
Sequence (P29274 whole entry): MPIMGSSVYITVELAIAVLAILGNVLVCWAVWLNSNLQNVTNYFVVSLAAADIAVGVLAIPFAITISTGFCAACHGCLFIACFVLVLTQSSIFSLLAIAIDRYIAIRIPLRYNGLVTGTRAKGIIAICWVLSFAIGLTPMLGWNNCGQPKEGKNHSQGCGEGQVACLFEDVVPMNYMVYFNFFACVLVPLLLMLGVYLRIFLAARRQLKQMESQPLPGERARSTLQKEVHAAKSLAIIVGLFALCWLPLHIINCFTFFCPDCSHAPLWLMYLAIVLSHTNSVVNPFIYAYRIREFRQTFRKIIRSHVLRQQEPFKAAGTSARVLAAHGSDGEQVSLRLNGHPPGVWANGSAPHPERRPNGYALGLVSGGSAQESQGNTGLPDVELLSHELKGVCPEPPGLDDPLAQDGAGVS
Experiment Notes: Displacement of [3H]-NECA from human recombinant adenosine A2A receptor expressed in CHO cell membranes after 3 hrs by microbeta counting analysis
# maps each entry to its Ki
Only the number, expressed in nM, is required.

Structure Smiles	System Under Test	Ki [nM]
CCN(CC)CCOc1ccc(-c2nc3c([nH]2)c(=O)n(C)c(=O)n3C)cc1	Adenosine receptor A2a (Homo sapiens, UniProt P29274)	250
Cn1c(=O)c2[nH]c(-c3ccc(OCCCn4ccnc4)cc3)nc2n(C)c1=O	Adenosine receptor A2a (Homo sapiens, UniProt P29274)	42
Cn1c(=O)c2[nH]c(-c3ccc(OCCN4CCCC4)cc3)nc2n(C)c1=O	Adenosine receptor A2a (Homo sapiens, UniProt P29274)	200
Cn1c(=O)c2[nH]c(Cc3ccc(OCCCn4ccnc4)cc3)nc2n(C)c1=O	Adenosine receptor A2a (Homo sapiens, UniProt P29274)	3170
CN(C)CCOc1ccc(-c2nc3c([nH]2)c(=O)n(C)c(=O)n3C)cc1	Adenosine receptor A2a (Homo sapiens, UniProt P29274)	400

Challenge: Specify reported Ki for the compound shown: Cn1c(=O)c2[nH]c(-c3ccc(OCCC4CCNCC4)cc3)nc2n(C)c1=O
Response given: 290

====

Species: Homo sapiens
Experiment Notes: Selectivity ratio of Ki for human recombinant adenosine A1 receptor to Ki for human recombinant adenosine A2A receptor
Quick reference: Ratio Ki of the listed items.
Enter a number only.

Challenge: Output measured Ratio Ki for this item: Cn1c(=O)c2[nH]c(-c3ccc(OCCCn4ccnc4)cc3)nc2n(C)c1=O
Response given: 21

Challenge: In one line, give reported Ratio Ki of the entry Cn1c(=O)c2[nH]c(-c3ccc(OCCC4CCNCC4)cc3)nc2n(C)c1=O .
Response given: 4.6

Challenge: Dear colleague, please send me the reported Ratio Ki for Cn1c(=O)c2[nH]c(-c3ccc(OCCCN4CCN(Cc5ccccc5Cl)CC4)cc3)nc2n(C)c1=O when you can.
Response given: 15

Challenge: Assign Ratio Ki to the following record: Cn1c(=O)c2[nH]c(-c3ccc(OCCN4CCCC4)cc3)nc2n(C)c1=O
Response given: 6

Challenge: Specify Ratio Ki for CCN(CC)CCOc1ccc(-c2nc3c([nH]2)c(=O)n(C)c(=O)n3C)cc1 and stop.
Response given: 6.4

Challenge: Please give measured Ratio Ki of the following entry: Cn1c(=O)c2[nH]c(-c3ccc(OCCN4CCOCC4)cc3)nc2n(C)c1=O
Response given: 8.3

Challenge: Answer with the recorded Ratio Ki of CN(C)CCOc1ccc(-c2nc3c([nH]2)c(=O)n(C)c(=O)n3C)cc1 only.
Response given: 4.6

====

Species: Homo sapiens
Experiment Notes: Selectivity ratio of Ki for human recombinant adenosine A3 receptor to Ki for human recombinant adenosine A2A receptor
Recorded Metric: Ratio Ki
// response body must contain only the number

Structure Smiles	Ratio Ki
Cn1c(=O)c2[nH]c(-c3ccc(OCCCn4ccnc4)cc3)nc2n(C)c1=O	54

Challenge: Look up and state reported Ratio Ki for Cn1c(=O)c2[nH]c(-c3ccc(OCCN4CCOCC4)cc3)nc2n(C)c1=O
Response given: 8.8

====

System Under Test: Adenosine receptor A2b (Homo sapiens, UniProt P29275)
Sequence (P29275 whole entry): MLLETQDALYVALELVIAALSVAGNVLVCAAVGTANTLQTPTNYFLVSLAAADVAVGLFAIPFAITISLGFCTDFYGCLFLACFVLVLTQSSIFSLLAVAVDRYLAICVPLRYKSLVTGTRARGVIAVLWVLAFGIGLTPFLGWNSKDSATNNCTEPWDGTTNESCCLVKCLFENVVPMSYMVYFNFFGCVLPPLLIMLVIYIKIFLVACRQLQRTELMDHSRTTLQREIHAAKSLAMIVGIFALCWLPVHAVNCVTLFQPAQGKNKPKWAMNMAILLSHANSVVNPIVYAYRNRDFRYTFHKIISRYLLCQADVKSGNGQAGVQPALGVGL
Experiment Notes: Binding affinity to human recombinant adenosine A2B receptor expressed in CHO cell membranes assessed as inhibition of NECA-stimulated adenylyl cyclase activity after 20 mins
Recorded measurements of Ki, one per entry

Record excerpt, results attached:
Structure Smiles	Measured Value
Cn1c(=O)c2[nH]c(Cc3ccc(OCCCn4ccnc4)cc3)nc2n(C)c1=O	> 10 µM
Cn1c(=O)c2[nH]c(-c3ccc(OCCCCl)cc3)nc2n(C)c1=O	> 10 µM

Consider now this further molecule.
Challenge: Given Cn1c(=O)c2[nH]c(-c3ccc(OCCC4CCNCC4)cc3)nc2n(C)c1=O , respond with its Ki.
Response given: 2.9 µM

====

The following compounds are shown together with reported pKi values.
System Under Test: Adenosine receptor A3 (Homo sapiens, UniProt P0DMS8)
Sequence (P0DMS8 whole entry): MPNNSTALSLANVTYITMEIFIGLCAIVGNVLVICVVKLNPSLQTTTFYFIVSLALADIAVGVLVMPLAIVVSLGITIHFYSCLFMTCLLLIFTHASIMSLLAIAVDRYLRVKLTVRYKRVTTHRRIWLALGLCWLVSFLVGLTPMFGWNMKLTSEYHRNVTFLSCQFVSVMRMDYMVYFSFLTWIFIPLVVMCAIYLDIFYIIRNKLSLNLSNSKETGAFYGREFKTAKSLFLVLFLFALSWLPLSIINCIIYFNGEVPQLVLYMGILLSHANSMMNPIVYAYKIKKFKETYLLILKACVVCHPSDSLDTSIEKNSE
Experiment Notes: Displacement of [3H]-HEMADO from human recombinant adenosine A3 receptor expressed in CHO cell membranes after 3 hrs by microbeta counting analysis
pKi field: float, defined as -log10 of concentration (mol/L).

Structure Smiles	pKi
Cn1c(=O)c2[nH]c(-c3ccc(OCCN4CCCC4)cc3)nc2n(C)c1=O	5.34

Switching to the query record.
Challenge: Assign pKi to the following record: CCN(CC)CCOc1ccc(-c2nc3c([nH]2)c(=O)n(C)c(=O)n3C)cc1
Response given: 5.17

====

Measured Ki, listed per entry.
System Under Test: Adenosine receptor A1 (Homo sapiens)
Sequence (P30542 whole entry): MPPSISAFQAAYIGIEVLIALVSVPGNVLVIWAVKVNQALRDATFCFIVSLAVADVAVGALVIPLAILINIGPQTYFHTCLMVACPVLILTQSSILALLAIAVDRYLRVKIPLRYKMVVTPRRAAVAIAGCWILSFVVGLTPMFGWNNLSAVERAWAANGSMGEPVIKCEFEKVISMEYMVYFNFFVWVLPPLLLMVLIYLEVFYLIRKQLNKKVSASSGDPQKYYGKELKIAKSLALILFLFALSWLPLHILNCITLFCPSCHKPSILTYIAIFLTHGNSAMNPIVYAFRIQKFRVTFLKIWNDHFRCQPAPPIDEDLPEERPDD
Experiment Notes: Displacement of [3H]-CCPA from human recombinant adenosine A1 receptor expressed in CHO cell membranes after 3 hrs by microbeta counting analysis
Report the value in nM with no unit label.

Examples with their reported Ki follow.
Structure Smiles	System Under Test	Ki [nM]
Cn1c(=O)c2[nH]c(-c3ccc(OCCCn4ccnc4)cc3)nc2n(C)c1=O	Adenosine receptor A1 (Homo sapiens)	890
CN(C)CCOc1ccc(-c2nc3c([nH]2)c(=O)n(C)c(=O)n3C)cc1	Adenosine receptor A1 (Homo sapiens)	1820
Cn1c(=O)c2[nH]c(-c3ccc(OCCC4CCNCC4)cc3)nc2n(C)c1=O	Adenosine receptor A1 (Homo sapiens)	1330
CCN(CC)CCOc1ccc(-c2nc3c([nH]2)c(=O)n(C)c(=O)n3C)cc1	Adenosine receptor A1 (Homo sapiens)	1590
Cn1c(=O)c2[nH]c(-c3ccc(OCCN4CCCC4)cc3)nc2n(C)c1=O	Adenosine receptor A1 (Homo sapiens)	1200
Cn1c(=O)c2[nH]c(-c3ccc(OCCN4CCOCC4)cc3)nc2n(C)c1=O	Adenosine receptor A1 (Homo sapiens)	2580

Proceeding to the next compound to report its Ki.
Challenge: Return reported Ki. Input compound: Cn1c(=O)c2[nH]c(-c3ccc(OCCCN4CCN(Cc5ccccc5Cl)CC4)cc3)nc2n(C)c1=O
Response given: 1850

====

Listed here: items and their measured pKi.
System Under Test: Adenosine receptor A3 (Homo sapiens, UniProt P0DMS8)
Experiment Notes: Displacement of [3H]-HEMADO from human recombinant adenosine A3 receptor expressed in CHO cell membranes after 3 hrs by microbeta counting analysis
Note on pKi: it is the negative log10 of concentration, concentration in mol/L.

Structure Smiles	pKi
Cn1c(=O)c2[nH]c(-c3ccc(OCCN4CCOCC4)cc3)nc2n(C)c1=O	5.56

Challenge: Given Cn1c(=O)c2[nH]c(-c3ccc(OCCCn4ccnc4)cc3)nc2n(C)c1=O , respond with its pKi.
Response given: 5.64

Challenge: Entry Cn1c(=O)c2[nH]c(-c3ccc(OCCC4CCNCC4)cc3)nc2n(C)c1=O needs its pKi filled in; supply it.
Response given: 5.19

Challenge: Query pKi for Cn1c(=O)c2[nH]c(-c3ccc(OCCCN4CCN(Cc5ccccc5Cl)CC4)cc3)nc2n(C)c1=O
Response given: 5.16

Challenge: // Input: CN(C)CCOc1ccc(-c2nc3c([nH]2)c(=O)n(C)c(=O)n3C)cc1 . Output its pKi only.
Response given: 5.03

====

Organism: Homo sapiens
Experiment Notes: Selectivity ratio of Ki for human recombinant adenosine A2B receptor to Ki for human recombinant adenosine A2A receptor
Recorded Metric: Ratio Ki
I'd appreciate a reply containing only the number, no unit.

Some compounds with known Ratio Ki results, for comparison:
Structure Smiles	Ratio Ki
Cn1c(=O)c2[nH]c(-c3ccc(OCCN4CCCC4)cc3)nc2n(C)c1=O	9.9
CCN(CC)CCOc1ccc(-c2nc3c([nH]2)c(=O)n(C)c(=O)n3C)cc1	10

Challenge: For the compound CN(C)CCOc1ccc(-c2nc3c([nH]2)c(=O)n(C)c(=O)n3C)cc1 , report Ratio Ki.
Response given: 12

Challenge: Supply measured Ratio Ki of Cn1c(=O)c2[nH]c(-c3ccc(OCCCn4ccnc4)cc3)nc2n(C)c1=O in your reply.
Response given: 25

====

Below: a set of entries, each annotated with reported Ki.
System Under Test: Adenosine receptor A2a (Homo sapiens)
Experiment Notes: Displacement of [3H]-NECA from human recombinant adenosine A2A receptor expressed in CHO cell membranes after 3 hrs by microbeta counting analysis
Give the quantity in nM, number only.

Structure Smiles	Value Unit	Ki
Cn1c(=O)c2[nH]c(Cc3ccc(OCCCN4CCC5(CC4)OCCO5)cc3)nc2n(C)c1=O	nM	8090
Cn1c(=O)c2[nH]c(-c3ccc(OCCN4CCOCC4)cc3)nc2n(C)c1=O	nM	310
Cn1c(=O)c2[nH]c(-c3ccc(OCCCCl)cc3)nc2n(C)c1=O	nM	45
Cn1c(=O)c2[nH]c(-c3ccc(OC4CCCC4)cc3)nc2n(C)c1=O	nM	72

Here is another compound to look at.
Challenge: Look up and report measured Ki for this entry: Cn1c(=O)c2[nH]c(-c3ccc(OCCCN4CCN(Cc5ccccc5Cl)CC4)cc3)nc2n(C)c1=O
Response given: 120
